System: Escherichia coli
Assay: Antibacterial activity against Escherichia coli after 24 hrs by microdilution method
Format: functional
Numbered stars: 1 amine (or outer) side, 2 acyl side, 3 side chain; on linkers, the order of the positions; unused ones are H or OH. Peptide text beside a SMILES is read from it. * marks the point of attachment. Piperazinyl(4-(2,3-Cl2Ph)) = Clc1cccc(N2CCN(*)CC2)c1Cl; Thiocarbamoyl(N-4-ClPh) = S=C(Nc1ccc(Cl)cc1)*; Thiocarbamoyl(N-2-FPh) = Fc1ccccc1NC(=S)*; NH(4-Cl-phenyl) = Clc1ccc(N*)cc1; X1 = Fc1ccc2c(C3CCN(*)CC3)noc2c1; NH(2-F-phenyl) = Fc1ccccc1N*; CO = O=C([*:1])[*:2]
Parameter: MIC
State the value, then name its unit.

Look up MIC for this compound: CC(C)[C@H](NC(=O)CNC(=O)Nc1ccc(Cl)cc1)C(=O)NCC(=O)N[C@H](C(=O)N1CCC[C@H]1C(=O)N1CCC(c2noc3cc(F)ccc23)CC1)C(C)C ({NH(4-Cl-phenyl)-CO}-GVGVP-X1)
9.25 µg/mL

// repeat for CC(C)[C@H](NC(=O)CNC(=S)Nc1ccc(Cl)cc1)C(=O)NCC(=O)N[C@H](C(=O)N1CCC[C@H]1C(=O)N1CCC(c2noc3cc(F)ccc23)CC1)C(C)C ({Thiocarbamoyl(N-4-ClPh)}-GVGVP-X1) and report
8.75 µg/mL

What about this compound? O=C(CNC(=S)Nc1ccc(Cl)cc1)N[C@@H](Cc1ccccc1)C(=O)NCC(=O)N[C@@H](Cc1ccccc1)C(=O)N1CCC[C@H]1C(=O)N1CCN(c2cccc(Cl)c2Cl)CC1 ({Thiocarbamoyl(N-4-ClPh)}-GFGFP-{Piperazinyl(4-(2,3-Cl2Ph))})
6.75 µg/mL

Same question for CC1(C)S[C@@H]2[C@H](NC(=O)[C@H](N)c3ccc(O)cc3)C(=O)N2[C@H]1C(=O)O [AMOXICILLIN] please.
24 µg/mL

What would you report for O=C(CNC(=O)Nc1ccccc1F)N[C@@H](Cc1ccccc1)C(=O)NCC(=O)N[C@@H](Cc1ccccc1)C(=O)N1CCC[C@H]1C(=O)N1CCC(c2noc3cc(F)ccc23)CC1 ({NH(2-F-phenyl)-CO}-GFGFP-X1) ?
5 µg/mL

Now give it for O=C(CNC(=O)Nc1ccccc1F)N[C@@H](Cc1ccccc1)C(=O)NCC(=O)N[C@@H](Cc1ccccc1)C(=O)N1CCC[C@H]1C(=O)N1CCN(c2cccc(Cl)c2Cl)CC1 ({NH(2-F-phenyl)-CO}-GFGFP-{Piperazinyl(4-(2,3-Cl2Ph))}) too.
5.5 µg/mL

Same question for O=C(CNC(=O)Nc1ccccc1F)NCC(=O)N[C@@H](Cc1ccccc1)C(=O)N1CCC[C@H]1C(=O)N1CCC(c2noc3cc(F)ccc23)CC1 ({NH(2-F-phenyl)-CO}-GGFP-X1) please.
12 µg/mL

Next entry: CC(C)[C@H](NC(=O)CNC(=S)Nc1ccc(Cl)cc1)C(=O)NCC(=O)N[C@H](C(=O)N1CCC[C@H]1C(=O)N1CCN(c2cccc(Cl)c2Cl)CC1)C(C)C ({Thiocarbamoyl(N-4-ClPh)}-GVGVP-{Piperazinyl(4-(2,3-Cl2Ph))})
9.5 µg/mL

What do you have for CC(C)[C@H](NC(=O)CNC(=O)Nc1ccccc1F)C(=O)NCC(=O)N[C@H](C(=O)N1CCC[C@H]1C(=O)N1CCN(c2cccc(Cl)c2Cl)CC1)C(C)C ({NH(2-F-phenyl)-CO}-GVGVP-{Piperazinyl(4-(2,3-Cl2Ph))}) ?
8.25 µg/mL

Now consider O=C(CNC(=S)Nc1ccccc1F)N[C@@H](Cc1ccccc1)C(=O)NCC(=O)N[C@@H](Cc1ccccc1)C(=O)N1CCC[C@H]1C(=O)N1CCC(c2noc3cc(F)ccc23)CC1 ({Thiocarbamoyl(N-2-FPh)}-GFGFP-X1) .
4.75 µg/mL

Same lookup for O=C(CNC(=S)Nc1ccc(Cl)cc1)N[C@@H](Cc1ccccc1)C(=O)NCC(=O)N[C@@H](Cc1ccccc1)C(=O)N1CCC[C@H]1C(=O)N1CCC(c2noc3cc(F)ccc23)CC1 ({Thiocarbamoyl(N-4-ClPh)}-GFGFP-X1) , please.
6 µg/mL

# repeat for O=C(CNC(=S)Nc1ccccc1F)NCC(=O)N[C@@H](Cc1ccccc1)C(=O)N1CCC[C@H]1C(=O)N1CCC(c2noc3cc(F)ccc23)CC1 ({Thiocarbamoyl(N-2-FPh)}-GGFP-X1)
11.5 µg/mL

// query: CC[C@H](C)[C@H](NC(=O)CNC(=O)CNC(=O)Nc1ccccc1F)C(=O)N1CCC[C@H]1C(=O)N1CCN(c2cccc(Cl)c2Cl)CC1 ({NH(2-F-phenyl)-CO}-GGIP-{Piperazinyl(4-(2,3-Cl2Ph))})
13 µg/mL

// query: CC(C)[C@H](NC(=O)CNC(=S)Nc1ccccc1F)C(=O)NCC(=O)N[C@H](C(=O)N1CCC[C@H]1C(=O)N1CCC(c2noc3cc(F)ccc23)CC1)C(C)C ({Thiocarbamoyl(N-2-FPh)}-GVGVP-X1)
7.25 µg/mL

Also check O=C(CNC(=O)Nc1ccc(Cl)cc1)N[C@@H](Cc1ccccc1)C(=O)NCC(=O)N[C@@H](Cc1ccccc1)C(=O)N1CCC[C@H]1C(=O)N1CCC(c2noc3cc(F)ccc23)CC1 ({NH(4-Cl-phenyl)-CO}-GFGFP-X1)
6.25 µg/mL

Subsequent entry: CC(C)[C@H](NC(=O)CNC(=O)Nc1ccccc1F)C(=O)NCC(=O)N[C@H](C(=O)N1CCC[C@H]1C(=O)N1CCC(c2noc3cc(F)ccc23)CC1)C(C)C ({NH(2-F-phenyl)-CO}-GVGVP-X1)
7.75 µg/mL

====

Tested on: Staphylococcus aureus
Assay: Antibacterial activity against coagulase-positive Staphylococcus aureus at 30 ug/ml after 24 hrs by agar well diffusion method
Type: functional
Conditions: read-out: DIZ
Numbered stars: 1 amine (or outer) side, 2 acyl side, 3 side chain; on linkers, the order of the positions; unused ones are H or OH. Peptide text beside a SMILES is read from it. * marks the point of attachment. Piperazinyl(4-(2,3-Cl2Ph)) = Clc1cccc(N2CCN(*)CC2)c1Cl; Thiocarbamoyl(4-MeOPh) = COc1ccc(NC(=S)*)cc1; Thiocarbamoyl(N-2-FPh) = Fc1ccccc1NC(=S)*; X1 = Fc1ccc2c(C3CCN(*)CC3)noc2c1; NH(2-F-phenyl) = Fc1ccccc1N*; CO = O=C([*:1])[*:2]
Parameter: zone of inhibition at 30 µg/mL

Any idea what its zone of inhibition at 30 µg/mL is? The compound is COc1ccc(NC(=S)NCC(=O)NCC(=O)N[C@@H](Cc2ccccc2)C(=O)N2CCC[C@H]2C(=O)N2CCN(c3cccc(Cl)c3Cl)CC2)cc1 ({Thiocarbamoyl(4-MeOPh)}-GGFP-{Piperazinyl(4-(2,3-Cl2Ph))})
18 mm

Here is the next compound: CC(C)[C@H](NC(=O)CNC(=O)Nc1ccccc1F)C(=O)NCC(=O)N[C@H](C(=O)N1CCC[C@H]1C(=O)N1CCN(c2cccc(Cl)c2Cl)CC1)C(C)C ({NH(2-F-phenyl)-CO}-GVGVP-{Piperazinyl(4-(2,3-Cl2Ph))})
29 mm

Same question for O=C(CNC(=O)Nc1ccccc1F)N[C@@H](Cc1ccccc1)C(=O)NCC(=O)N[C@@H](Cc1ccccc1)C(=O)N1CCC[C@H]1C(=O)N1CCN(c2cccc(Cl)c2Cl)CC1 ({NH(2-F-phenyl)-CO}-GFGFP-{Piperazinyl(4-(2,3-Cl2Ph))}) please.
33 mm

Try O=C(CNC(=S)Nc1ccccc1F)N[C@@H](Cc1ccccc1)C(=O)NCC(=O)N[C@@H](Cc1ccccc1)C(=O)N1CCC[C@H]1C(=O)N1CCC(c2noc3cc(F)ccc23)CC1 ({Thiocarbamoyl(N-2-FPh)}-GFGFP-X1) next.
36 mm

====

Test system: Staphylococcus aureus
Experiment: Antibacterial activity against coagulase-positive Staphylococcus aureus at 30 ug/ml after 24 hrs by agar well diffusion method
Format: functional
Settings: read-out: DIZ
Numbered stars: 1 amine (or outer) side, 2 acyl side, 3 side chain; on linkers, the order of the positions; unused ones are H or OH. Peptide text beside a SMILES is read from it. * marks the point of attachment. Piperazinyl(4-(2,3-Cl2Ph)) = Clc1cccc(N2CCN(*)CC2)c1Cl; Thiocarbamoyl(4-MeOPh) = COc1ccc(NC(=S)*)cc1; NH(4-MeO-phenyl) = COc1ccc(N*)cc1; X1 = Fc1ccc2c(C3CCN(*)CC3)noc2c1; NH(2-F-phenyl) = Fc1ccccc1N*; CO = O=C([*:1])[*:2]
Consider the following compounds; for each one, report its zone of inhibition at 30 µg/mL.
Numeric only. Scale: mm

Which zone of inhibition at 30 µg/mL value is on record for COc1ccc(NC(=S)NCC(=O)N[C@H](C(=O)NCC(=O)N[C@H](C(=O)N2CCC[C@H]2C(=O)N2CCC(c3noc4cc(F)ccc34)CC2)C(C)C)C(C)C)cc1 ({Thiocarbamoyl(4-MeOPh)}-GVGVP-X1) ?
24

Try this compound too: COc1ccc(NC(=S)NCC(=O)N[C@@H](Cc2ccccc2)C(=O)NCC(=O)N[C@@H](Cc2ccccc2)C(=O)N2CCC[C@H]2C(=O)N2CCN(c3cccc(Cl)c3Cl)CC2)cc1 ({Thiocarbamoyl(4-MeOPh)}-GFGFP-{Piperazinyl(4-(2,3-Cl2Ph))})
26

Then what about the compound CC[C@H](C)[C@H](NC(=O)CNC(=O)CNC(=O)Nc1ccc(OC)cc1)C(=O)N1CCC[C@H]1C(=O)N1CCC(c2noc3cc(F)ccc23)CC1 ({NH(4-MeO-phenyl)-CO}-GGIP-X1) ?
14

Quick one: CC[C@H](C)[C@H](NC(=O)CNC(=O)CNC(=O)Nc1ccccc1F)C(=O)N1CCC[C@H]1C(=O)N1CCN(c2cccc(Cl)c2Cl)CC1 ({NH(2-F-phenyl)-CO}-GGIP-{Piperazinyl(4-(2,3-Cl2Ph))})
24
